test: chemical genetic growth profiling, strain panel (AID 1159580);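 also: tested at 20 µM; growth read once vehicle control cultures reached saturation at 30 °C; 1 = growth at the plate median or of vehicle wells; lower values mean less growth of the strain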; conditions: S. cerevisiae deletion strains, growth OD, locus YOR136W, strain idh2, hits give low values
In all, about 5,500 compounds went through this assay and about 2,000 (36%) were called active. Roughly 18% stayed inconclusive and do not appear here. The list shows a part of the results.
Would you kindly list normalized growth for each of these compounds?
Numbers only.

• O=C1OC(c2ccc(O)cc2)(c2ccc(O)cc2)c2ccccc21 = 0.983
• NC(=O)c1cccc(N)c1 = 0.993
• C=C1C(=O)O[C@@H]2C[C@@]3(C)CCC[C@H](C)C3=C[C@H]12 = 0.942
• C=C1C(C)C2C(Cc3ccccc3)NC(=O)C23OC(=O)/C=C/C(=O)CCCC(C)C/C=C/C3C1O (stereo not given) = 0.991
• O=C(O)c1cc2cc(Cc3cccnc3)ccc2o1 = 0.997
• O=C(C1CCCCC1)N1CC(=O)N2CCc3ccccc3C2C1 (stereo not given) = 1.01

// for each compound in input: emit normalized growth
1. COC(=O)C[C@H]1C(C)(C)C(=O)[C@@H]2CC3=C(CC[C@]4(C)C3=CC(=O)O[C@H]4c3ccoc3)[C@@]1(C)C2=O
2. C=C1C(C)C2C(Cc3ccccc3)NC(=O)C23OC(=O)/C=C/C(O)CCCC(C)C/C=C/C3C1O (stereo not given)
3. Nc1ccn(C2O[C@H](CO)[C@@H](O)[C@@H]2O)c(=O)n1 (stereo not given in full)
4. CC1=CC2C(CC1=O)C(C)=CCC2C(C)C (stereo not given)

stdout:
1. 1.01
2. 0.999
3. 1
4. 0.959
